B1: Osa-1-4 twister ribozyme (parent)
chain: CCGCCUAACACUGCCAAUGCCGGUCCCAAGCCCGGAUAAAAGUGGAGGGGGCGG

Variants of: B1
Experiment: self-cleavage, relative activity (ratio to wild type); higher = more cleavage; co-transcriptional
Where self-cleavage equals or exceeds 0.1, the correct label is criterion met; where it does not, the label is criterion not met.

Would you say G35A G49C shows self-cleavage at minimum 0.1? criterion not met

Would you say C26A C27U shows self-cleavage at minimum 0.1? criterion not met

Would you say C31G G30C shows self-cleavage at minimum 0.1? criterion not met

Would you say A39G G50C shows self-cleavage at minimum 0.1? criterion met

Would you say C52U G54C shows self-cleavage at minimum 0.1? criterion met

Would you say A39U G50U shows self-cleavage at minimum 0.1? criterion met

Would you say G34A G53U shows self-cleavage at minimum 0.1? criterion met

Would you say A17G G50C shows self-cleavage at minimum 0.1? criterion met

Would you say C33G G47A shows self-cleavage at minimum 0.1? criterion not met

Would you say G22C G50C shows self-cleavage at minimum 0.1? criterion not met

Would you say C21U G51A shows self-cleavage at minimum 0.1? criterion met

Would you say A38C U12G shows self-cleavage at minimum 0.1? criterion met

Would you say A28U G45C shows self-cleavage at minimum 0.1? criterion not met

Would you say C25G U12A shows self-cleavage at minimum 0.1? criterion not met

Would you say A46G G53A shows self-cleavage at minimum 0.1? criterion not met

Would you say C25G shows self-cleavage at minimum 0.1? criterion met

Would you say A8G G22U shows self-cleavage at minimum 0.1? criterion met

Would you say C9U U43C shows self-cleavage at minimum 0.1? criterion met

Would you say C14A G30C shows self-cleavage at minimum 0.1? criterion not met

Would you say A8U G22A shows self-cleavage at minimum 0.1? criterion met

Would you say C21U G22C shows self-cleavage at minimum 0.1? criterion met

Would you say C9U G35U shows self-cleavage at minimum 0.1? criterion met

Would you say A28C G35C shows self-cleavage at minimum 0.1? criterion met

Would you say G48A G50A shows self-cleavage at minimum 0.1? criterion met

Would you say A39G A40U shows self-cleavage at minimum 0.1? criterion met

Would you say C32G U37A shows self-cleavage at minimum 0.1? criterion met

Would you say C21U U37C shows self-cleavage at minimum 0.1? criterion met

Would you say G48U G49A shows self-cleavage at minimum 0.1? criterion not met

Would you say A38C G34A shows self-cleavage at minimum 0.1? criterion met

Would you say A40C G51U shows self-cleavage at minimum 0.1? criterion not met

Would you say A41U G13A shows self-cleavage at minimum 0.1? criterion met

Would you say A10C C14U shows self-cleavage at minimum 0.1? criterion not met

Would you say C25A G54A shows self-cleavage at minimum 0.1? criterion met

Would you say G49U U43G shows self-cleavage at minimum 0.1? criterion not met

Would you say G30C U43G shows self-cleavage at minimum 0.1? criterion not met

Would you say A29C A8C shows self-cleavage at minimum 0.1? criterion not met

Would you say A16G A40U shows self-cleavage at minimum 0.1? criterion met

Would you say C20A C31A shows self-cleavage at minimum 0.1? criterion not met

Values compiled from the RNAGym collection of RNA variant scans (doi:10.1002/anie.201605470).
